- tgt: Gβ1γ2 (Gβ1 mutants) (UniProt P54311+P63212, Y59A)
- Construct: made in house; host or cells: Sf9 insect cells (baculovirus), partially purified via (His)6-Gαi1 on Ni-NTA
- method_description: Phage ELISA: binding of peptide-displaying phage to wild-type or alanine-substituted b-βγ
- Parameters: species or system rat
- test_conditions: Gβ1 Tyr59Ala; mean ± SD
readout_type: % of Wild-Type Signal (%)

[[record]]
residue_sequence = "SCEKRYGIEFCT [Compound C4]"
tgt = "Gβ1γ2 (Gβ1 mutants) (UniProt P54311+P63212, Y59A)"
measured_value = 7.6

[[record]]
residue_sequence = "SCARFFGTPGCT [Compound C8]"
tgt = "Gβ1γ2 (Gβ1 mutants) (UniProt P54311+P63212, Y59A)"
measured_value = 4.0

[[record]]
residue_sequence = "SIGKALFILGYPDYD [Compound 3.14]"
tgt = "Gβ1γ2 (Gβ1 mutants) (UniProt P54311+P63212, Y59A)"
measured_value = 24.7

[[record]]
residue_sequence = "LCSKAYLLLGQTC [Compound 2F]"
tgt = "Gβ1γ2 (Gβ1 mutants) (UniProt P54311+P63212, Y59A)"
measured_value = "−2.0"

[[record]]
residue_sequence = "SCEKRLGVRSCT (phage-displayed) [Compound C5]"
tgt = "Gβ1γ2 (Gβ1 mutants) (UniProt P54311+P63212, Y59A)"
measured_value = 73.8

[[record]]
residue_sequence = "WCPPKLEQWYDGCA [Compound C2]"
tgt = "Gβ1γ2 (Gβ1 mutants) (UniProt P54311+P63212, Y59A)"
measured_value = "−1.7"

[[record]]
residue_sequence = "SCKRTKAQILLAPCT [Compound C1]"
tgt = "Gβ1γ2 (Gβ1 mutants) (UniProt P54311+P63212, Y59A)"
measured_value = 0.3

[[record]]
residue_sequence = "WCPPKAMTQLGIKAC [Compound C14]"
tgt = "Gβ1γ2 (Gβ1 mutants) (UniProt P54311+P63212, Y59A)"
measured_value = 3.6

[[record]]
residue_sequence = "SCGHGLKVQSTIGACA [Compound 3C]"
tgt = "Gβ1γ2 (Gβ1 mutants) (UniProt P54311+P63212, Y59A)"
measured_value = 8.5

